The measured values listed here are drawn from PubChem BioAssay AID179.

Test system: CEM cells HIV-1 protection, formazan growth assay
Test: NCI AIDS Antiviral Assay
Conditions: measured here: growth of uninfected CEM cells
experimentalReadout: IC50

CC1=CCC2(C#N)CCC1C2=O (stereo not drawn): > 251 µM

Summary: CCOP(=O)(OCC)C(N)C(C)CC (stereo not drawn) , CEM cells HIV-1 protection, formazan growth assay, IC50 = > 479 µM

Summary: `CC1(C)CNCC2(C)OCCCOC3(C)CNCC(C)(C)NC(=O)C(C)(CNCC(C)(C)NC3=O)OCCCOC(C)(CNCC(C)(C)NC2=O)C(=O)N1` , CEM cells HIV-1 protection, formazan growth assay, IC50 = > 200 µM
